# Tested on: Staphylococcus aureus
# protocol_summary: Antibacterial activity against methicillin-resistant Staphylococcus aureus by CLSI M7-A7 broth microdilution method
# Format: functional
quantity_measured: MIC90

| compound | target | assay_result |
| --- | --- | --- |
| C[C@H]1COc2c(N3CCN(C)CC3)c(F)cc3c(=O)c(C(=O)O)cn1c23.C[C@H]1COc2c(N3CCN(C)CC3)c(F)cc3c(=O)c(C(=O)O)cn1c23.O | Staphylococcus aureus | > 16 µg/mL |

Incoming: Requested read-out MIC90, target or system Staphylococcus aureus, entry C[C@@H](O)[C@H]1C(=O)N2C(C(=O)O)=C(SCCNC=N)C[C@H]12 [IMIPENEM ANHYDROUS]
Outgoing: > 16 µg/mL

Incoming: Param readout = MIC90; param system = Staphylococcus aureus; param query = CC(C)(O/N=C(\C(=O)N[C@@H]1C(=O)N2C(C(=O)[O-])=C(C[n+]3ccccc3)CS[C@H]12)c1csc(N)n1)C(=O)O ; response: value
Outgoing: > 32 µg/mL

Incoming: Form: Entry = CO/N=C(\C(=O)N[C@@H]1C(=O)N2C(C(=O)O)=C(CSc3nc(=O)c(O)nn3C)CS[C@H]12)c1csc(N)n1 | System = Staphylococcus aureus | MIC90 = ____
Outgoing: > 32 µg/mL

Incoming: Short answer please: MIC90, Staphylococcus aureus, entry Cc1onc(-c2ccccc2)c1C(=O)N[C@@H]1C(=O)N2[C@@H]1SC(C)(C)[C@@H]2C(=O)O
Outgoing: > 8 µg/mL
